Each recorded value in this set is attributed to a melting point compilation (Tetko et al.; mined from patent text by program, amines drawn as free bases though some values may be those of a salt).

List of melting point values.
readout-name: melting point

>>> df
                                   molecule   readout_name    measurement
0  CCCCCCCCCCCC(=O)OCC(COCc1ccccc1)OC(=O)CCCCCCCCCCC (stereo unspecified)  melting point    30 to 31 °C
1                 COCCNC(=O)c1ccc(SC)c(N)c1  melting point    66 to 68 °C
2  OC1(C#Cc2cc(Cl)ccc2Cl)CN2CCC1CC2 (stereo unspecified)  melting point  197 to 200 °C
3  CN(CCOc1ccc(CC(C(=O)O)S(=O)(=O)c2ccccc2)cc1)c1nc2ccccc2o1 (stereo unspecified)  melting point  193 to 196 °C
4  CN(C)c1ccc2c(c1)C(=O)N(c1ccc(CCCC(=O)OC(C)(C)C)cc1)C2  melting point  115 to 116 °C
5  CNC1=Nc2ccccc2C(O)(c2ccccc2)C1(C)C (stereo unspecified)  melting point  192 to 194 °C

###

readout-name: melting point

                                    compound   readout_name      measurement
 0  COC1CCN(c2cc(NC(=O)OC(C)(C)C)c(N)cc2C#Cc2ccccc2)CC1  melting point    173 to 176 °C
 1  COc1cc(NC(=O)CN2CCOCC2)c(Cl)cc1Cn1nc(-c2ccc(C(F)(F)F)cc2)oc1=O  melting point    178 to 179 °C
 2                       C=Cc1c[nH]c(=O)nc1N  melting point         > 290 °C
 3  COC(=O)CCc1cc2c(s1)NC(=S)C(C)N=C2c1ccccc1Cl (centres undefined)  melting point    198 to 200 °C
 4                        Cc1nc2c(O)cccc2n1C  melting point    243 to 245 °C
 5                          COc1cc(CCN)ccc1O  melting point    156 to 158 °C
 6  C#CC(C)Oc1cc(-c2nn3c(c2Cl)CCCC3)c(F)cc1Cl (centres undefined)  melting point    116 to 120 °C
 7                     NS(=O)(=O)c1ccc(CO)s1  melting point      70 to 71 °C
 8  O=C(C=Cc1ccc(O)c(OC(F)(F)F)c1)C(CCOCCO)C(=O)C=Cc1ccc(O)c(OC(F)(F)F)c1 (centres undefined)  melting point    112 to 114 °C
 9  CC(=O)OC1OC(COC(=O)c2ccccc2)CC(OC(=O)c2ccccc2)C1OC(=O)c1ccccc1 (centres undefined)  melting point    123 to 124 °C
10  COc1ccc(S(=O)(=O)C2(C(=O)NO)CCN(C(C)C)CC2)cc1  melting point            75 °C
11  COC(=O)Cc1ccc(CNC(=O)[C@@H](CCCNC(N)=N[N+](=O)[O-])NC(=O)C(c2ccccc2)c2ccccc2)cc1  melting point    158 to 160 °C
12  CCOC(=O)N1CCN(CCNc2ncnc3c2sc2nc(-c4ccoc4)c4c(c23)CC(C)(C)CC4)CC1  melting point  85.1 to 86.4 °C
13      CCOC(=O)c1cc(=O)nc2n1-c1ccc(C)cc1OC2  melting point    136 to 137 °C
14  Fc1ccc2c(c1)OCc1c(-c3noc(C4CC4)n3)ncn1-2  melting point    182 to 184 °C
15  COc1cc(C=O)ccc1OCc1nc(-c2cccc(OS(C)(=O)=O)c2)oc1C  melting point    136 to 137 °C
16  Cc1csc(-c2ccc3c(ccn3S(=O)(=O)c3ccccc3)c2)n1  melting point    209 to 210 °C
17         O=C1CCN(Cc2ccccc2)C(=O)C1=C1SCCS1  melting point    148 to 150 °C
18           O=c1cc(-c2ccoc2)c2ccc(CBr)cc2o1  melting point    155 to 156 °C
19        C=C(CS(=O)(=O)c1ccc(C)cc1)c1ccccc1  melting point           103 °C
20  CCCCCCCCCCCCCCCCOCC(COP(=O)(O)O)OCCCCCCCCCCCCCCCC (centres undefined)  melting point    157 to 159 °C
21           CCc1cc(N)c(C(=O)c2ccccc2)c(C)n1  melting point    200 to 202 °C
22          Nc1c(OCCCl)cc(Cl)cc1[N+](=O)[O-]  melting point    109 to 110 °C
23  Cc1c(C(=O)Nc2ccc(N3CCC(N4CCOCC4)CC3)c(C#N)c2)cnn1-c1ccc(I)cc1  melting point           280 °C
24  Nc1nc2ccccc2c2c1nc(C1CCOC1)n2CCOc1ccccc1 (centres undefined)  melting point           236 °C
25  CCOC1CCC2C3CCc4cc(OC)ccc4C3CCC12CC (centres undefined)  melting point      74 to 77 °C
26            COc1cc(C2=NCCO2)cc(OC)c1C(C)=O  melting point    135 to 137 °C
27  Cc1c(NC(=O)c2ccc(OC[C@@H]3CCCO3)cc2)ccc2c1cc(CNCC(C)C)n2C  melting point           162 °C
28  Nc1c(CCO)cccc1C(O)c1ccc(Cl)cc1 (centres undefined)  melting point    132 to 134 °C
29                    Cc1cc(O)n2nc(CBr)nc2n1  melting point    217 to 222 °C
30  CCCCc1ccc(C(=O)C(CC(=O)N[C@@H](Cc2cc(F)cc(F)c2)[C@H](O)CNCc2cccc(CC)c2)Cc2ccccc2)cc1 (some centres undefined)  melting point      42 to 45 °C
31    CCOC(=O)c1cnc(Cl)cc1NCc1ccc(OC)c(Cl)c1  melting point    116 to 118 °C
32  CC1CC(=O)NN=C1c1ccc(OCCCN)cc1 (centres undefined)  melting point    136 to 138 °C
33           CCCNCc1cccc(OCCCNc2nc(N)nn2C)c1  melting point      79 to 81 °C

###

readout-name: melting point

                                   compound   readout_name    measurement
0  O=[N+]([O-])c1ccc2c(c1)OC(C1(CCCCCl)OCCO1)CO2 (stereo not drawn)  melting point    74 to 76 °C
1        CCCCCCCCCCCCCCCc1ccc(C(=O)O)c(O)c1  melting point    96 to 97 °C
2  C#CCOc1cc(-n2nc(C)c([N+](=O)[O-])c2C)c(F)cc1Cl  melting point  125 to 126 °C

###

List of melting point values.
readout-name: melting point

In [3]: df
Out[3]:
                                   compound   readout_name    measurement
0             O=c1c(-c2ccc[nH]2)coc2ccccc12  melting point  134 to 135 °C
1  CC(=O)OC1(C(C)=O)CCC2C3C=CC4=CC(=O)CCC4(C)C3C(F)CC21C (stereo unspecified)  melting point  220 to 222 °C
2  COC(=O)c1ccc(CSc2nnc(-c3ccc4c(c3)CCO4)o2)cc1  melting point  125 to 126 °C
3  c1ccc(OCCSCc2ncc(-c3ccc(N=C(c4ccccc4)c4ccccc4)cc3)o2)cc1  melting point    86 to 90 °C
4  Oc1ccc2ccccc2c1C1NCCc2ccccc21 (stereo unspecified)  melting point  148 to 150 °C
5                    Cn1cc(C=O)c2cccc(F)c21  melting point    92 to 94 °C

###

List of melting point values.
readout-name: melting point

>>> df
                                    compound   readout_name    measurement
 0  CC(Oc1ccc(Cl)cc1)c1nnc(N2C(=O)N(C)CC2O)s1 (stereo not given)  melting point  147 to 149 °C
 1  N#CCc1nn2c(-c3cccc(C(F)(F)F)c3)ccnc2c1C#N  melting point  180 to 181 °C
 2  Cc1nc(N2CCC(O)C2)c2nc(-c3ccccc3)cc-2[nH]1 (stereo not given)  melting point  234 to 235 °C
 3  CC(Br)c1ccc(-c2ccc(C(=O)c3ccccc3)cc2)cc1 (stereo not given)  melting point  132 to 134 °C
 4                C=CCN1CCCNC1=C[N+](=O)[O-]  melting point  125 to 126 °C
 5      Nc1nc(Nc2ccccc2)sc1C(=O)c1c(F)cccc1F  melting point  183 to 184 °C
 6  COc1cc2c(cc1OS(N)(=O)=O)CCN(Cc1cccc(NS(C)(=O)=O)c1)C2  melting point  151 to 152 °C
 7                       O=c1[nH]ccc2ncccc12  melting point  156 to 159 °C
 8  c1ccc2cc(-c3nc(COc4ccc(CCCn5ccnc5)cc4)co3)ccc2c1  melting point  131 to 132 °C
 9  CCOC(=O)c1nc2c(=O)[nH]c3cc(S(C)(=O)=O)ccc3n2c1C  melting point       > 250 °C
10  CC(=O)OC1CSC(Oc2ccc(-c3ccc(Cl)nc3)nc2)C(OC(C)=O)C1OC(C)=O (stereo not given)  melting point         204 °C
11             Oc1ccc(Oc2ccc(O)c(Br)c2)cc1Br  melting point         106 °C
12  CN1C2CCCC1CN(c1ccc3cc([N+](=O)[O-])ccc3n1)C2  melting point         166 °C
13     O=C(O)CCc1oc(N2CCCC2)nc1-c1ccc(Cl)cc1  melting point  199 to 200 °C
14            O=C1CCc2cc(-c3cccc(Cl)c3)ccc21  melting point         113 °C
